Biological target: T1, TAT226-His (Homo sapiens, UniProt Q8N2G4)
T1 construct: polyhistidine (C); made in house
T1 sequence (Q8N2G4 21-115): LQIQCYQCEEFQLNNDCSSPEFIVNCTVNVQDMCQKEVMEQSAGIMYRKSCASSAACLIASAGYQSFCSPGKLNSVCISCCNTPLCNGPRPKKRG
Test: Binding affinity for recombinant antigen by surface plasmon resonance (BIACORE 3000)
Settings: association rate; immobilized antibody, TAT226-His 0.7 nM to 500 nM, 25° C., one-to-one Langmuir model
Each entry below carries its recorded kon/10^5.
Write the value as a bare number.

Use the examples below as a reference point.
molecule="YWO.49.H6: affinity matured anti-TAT226 antibody derived from YWO.49, reformatted as full-length IgG (antibody, V domains shown) VH: EVQLVESGGGLVQPGGSLRLSCAASGFTITNYGIHWVRQAPGKGLEWVGRIYPDSGATYYADSVKGRFTISADTSKNTAYLQMNSLRAEDTAVYYCARKLWISIAGMDYWGQGTLVTVSS VL: DIQMTQSPSSLSASVGDRVTITCRASQDVSTAVAWYQQKPGKAPKLLIYSASFLYSGVPSRFSGSGSGTDFTLTISSLQPEDFATYYCQHSYATPFTFGQGTKVEIKR" recorded_value=1.86
molecule="YWO.49.H2: affinity matured anti-TAT226 antibody derived from YWO.49, reformatted as full-length IgG (antibody, V domains shown) VH: EVQLVESGGGLVQPGGSLRLSCAASGFTITNYGIHWVRQAPGKGLEWVGRIYPDSGATYYADSVKGRFTISADTSKNTAYLQMNSLRAEDTAVYYCARKLWVSLAPMDYWGQGTLVTVSS VL: DIQMTQSPSSLSASVGDRVTITCRASQDVSTAVAWYQQKPGKAPKLLIYSASFLYSGVPSRFSGSGSGTDFTLTISSLQPEDFATYYCQQSYGTPFIFGQGTKVEIKR" recorded_value=0.22

Task: What does the data say about its kon/10^5? Entry: YWO.49.B7: affinity matured anti-TAT226 antibody derived from YWO.49, reformatted as full-length IgG (antibody, V domains shown) VH: EVQLVESGGGLVQPGGSLRLSCAASGFTITNYGIHWVRQAPGKGLEWVGRIYPDSGATYYADSVKGRFTISADTSKNTAYLQMNSLRAEDTAVYYCARKLWVSLAAMDYWGQGTLVTVSS VL: DIQMTQSPSSLSASVGDRVTITCRASQDVSTAVAWYQQKPGKAPKLLIYSASFLYSGVPSRFSGSGSGTDFTLTISSLQPEDFATYYCQRSVFTPPAFGQGTKVEIKR
Result: 0.27

The reported numbers originate from patent US9675707B2.
